Would you kindly list Activity for each of these molecules?
# Test system: C3H 10T1/2
# assay-details: Induction of lipolysis in mouse C3H10T1/2 assessed as glycerol concentration at 10 uM relative to control
# Type: functional
One number for each entry, in %.

Examples from the recorded data:
>  <molecule>
CCCC(NS(=O)(=O)c1ccc2c(c1)CCCC(=O)N2)c1cccs1 (stereo unspecified)

>  <unit-of-measure>
%

>  <Activity>
131.9

$$$$
>  <molecule>
Cc1ccc(S(=O)(=O)N/N=C2\CC(C)(C)Oc3ccc([N+](=O)[O-])cc32)cc1

>  <unit-of-measure>
%

>  <Activity>
168.4

$$$$

Batch request: Activity for each of the following molecules.
1. CC1=NN(S(=O)(=O)c2ccc(C)cc2)C(O)(C(F)(F)F)C1 (stereo unspecified)
2. CN(C(=O)CCCOc1ccc2[nH]c(=O)ccc2c1)C1CCCCC1 [CILOSTAMIDE]
3. CC(C)NCC(O)c1ccc(O)c(O)c1 (stereo unspecified)
4. C/C(=N\NS(=O)(=O)c1ccc(C)cc1)c1ccc2c(c1)C(C)(C)C(=O)N2

[out]
171.3
247.36
291.3
191.7
